Test system: microbiota present in the faecal samples
measurementNotes: Faecal fermentation, distribution of oligosaccharides (HPAEC-PAD peak areas)
experimentalParameters: Example 2 sample, 24 h, Donor B
reportedEndpoint: Peak areas

Please review the following examples before continuing.
>>> reportedresult("OC[C@H]1O[C@@H](O[C@H]2[C@@H](O)[C@@H](CO)O[C@@H](O[C@H]3C(O)O[C@H](CO)[C@@H](O)[C@@H]3O)[C@@H]2O)[C@H](O)[C@@H](O)[C@H]1O (stereo partly shown)")
0.5
>>> reportedresult("OC[C@H]1O[C@@H](OC[C@H]2OC(O)[C@H](O)[C@@H](O)[C@@H]2O)[C@H](O)[C@@H](O)[C@H]1O (stereo partly shown)")
0.0

[1] OC[C@H]1O[C@@H](O[C@H]2[C@@H](O)[C@@H](CO)O[C@@H](O[C@H]3[C@@H](O)[C@@H](CO)O[C@@H](O[C@H]4[C@H](O)[C@@H](O)C(O)O[C@@H]4CO)[C@@H]3O)[C@@H]2O)[C@H](O)[C@@H](O)[C@H]1O (stereo partly shown)
[2] O=C[C@H](O)[C@@H](O)[C@@H](O)[C@H](O)CO
I'd appreciate it if you could identify which of 1 and 2 has the greater Peak areas. Respond using the label that marks the chosen record.
1

====

Test system: microbiota present in the faecal samples
measurementNotes: Faecal fermentation, distribution of oligosaccharides (HPAEC-PAD peak areas)
experimentalParameters: Example 2 sample, 48 h, Donor C
reportedEndpoint: Peak areas

>>> reportedresult("OC[C@H]1O[C@@H](O[C@H]2[C@H](O)[C@@H](O)C(O)O[C@@H]2CO)[C@H](O)[C@@H](O)[C@H]1O (some centres unmarked) [Lactose]")
0.3
>>> reportedresult("OC[C@H]1O[C@@H](O[C@@H]2[C@H](O)[C@@H](O)[C@H](O[C@H]3[C@H](O)[C@@H](O)C(O)O[C@@H]3CO)O[C@@H]2CO)[C@H](O)[C@@H](O)[C@H]1O (stereo partly drawn) [Cpd. ID 11, D-Gal-(β1-4)-D-Gal-(β1-4)-D-Glu]")
0.6
>>> reportedresult("O=C[C@H](O)[C@@H](O)[C@H](O)[C@H](O)CO [Glucose]")
0.0

[a] OC[C@H]1O[C@@H](O[C@H]2[C@@H](O)[C@@H](CO)O[C@@H](O[C@H]3[C@H](O)[C@@H](CO)OC(O)[C@@H]3O)[C@@H]2O)[C@H](O)[C@@H](O)[C@H]1O (stereo partly drawn) [Cpd. ID 29, D-Gal-(β1-3)-D-Gal-(β1-3)-D-Glu]
[b] OC[C@H]1O[C@@H](O[C@H]2[C@@H](O)[C@@H](CO)O[C@@H](O[C@H]3C(O)O[C@H](CO)[C@@H](O)[C@@H]3O)[C@@H]2O)[C@H](O)[C@@H](O)[C@H]1O (stereo partly drawn) [Cpd. ID 30, D-Gal-(β1-3)-D-Gal-(β1-2)-D-Glu]
// returns a or b , whichever has the lower Peak areas Respond using the label that marks the chosen record.
a
(a: 0.1, b: 0.2)

====

Test system: microbiota present in the faecal samples
measurementNotes: Faecal fermentation, distribution of oligosaccharides (HPAEC-PAD peak areas)
experimentalParameters: Comp. Ex. 1 sample, 6 h, Donor C
From the text: HPAEC-PAD (high performance anion exchange chromatography) equipped with a PA-1 column was used for separation of mono- and oligosaccharides of the different samples. […] The samples as used for GPC were 100-fold diluted with DMSO before injection. The distribution of oligosaccharides in the mixtures was also monitored over this time period using the method described above in relation to Table 2.
reportedEndpoint: Peak areas

>>> reportedresult("O=C[C@H](O)[C@@H](O)[C@@H](O)[C@H](O)CO [Galactose]")
0.7
>>> reportedresult("O=C[C@H](O)[C@@H](O)[C@H](O)[C@H](O)CO [Glucose]")
0.2
>>> reportedresult("OC[C@H]1O[C@@H](O[C@H]2[C@@H](O)[C@@H](CO)O[C@@H](O[C@H]3[C@H](O)[C@@H](CO)OC(O)[C@@H]3O)[C@@H]2O)[C@H](O)[C@@H](O)[C@H]1O (stereo partly drawn) [Cpd. ID 29, D-Gal-(β1-3)-D-Gal-(β1-3)-D-Glu]")
1.0
>>> reportedresult("OC[C@H]1O[C@@H](O[C@H]2[C@@H](O)[C@@H](CO)O[C@@H](O[C@H]3[C@H](O)[C@@H](O)C(O)O[C@@H]3CO)[C@@H]2O)[C@H](O)[C@@H](O)[C@H]1O (stereo partly drawn) [Cpd. ID 12, D-Gal-(β1-3)-D-Gal-(β1-4)-D-Glu]")
0.9
>>> reportedresult("OC[C@H]1O[C@@H](O[C@H]2[C@@H](O)[C@@H](CO)O[C@@H](O[C@H]3[C@@H](O)[C@@H](CO)O[C@@H](O[C@H]4[C@H](O)[C@@H](O)C(O)O[C@@H]4CO)[C@@H]3O)[C@@H]2O)[C@H](O)[C@@H](O)[C@H]1O (stereo partly drawn) [Cpd. ID 31]")
0.3

[I] OC[C@H]1O[C@@H](O[C@@H]2[C@H](O)[C@@H](O)[C@H](O[C@H]3[C@H](O)[C@@H](O)C(O)O[C@@H]3CO)O[C@@H]2CO)[C@H](O)[C@@H](O)[C@H]1O (stereo partly drawn) [Cpd. ID 11, D-Gal-(β1-4)-D-Gal-(β1-4)-D-Glu]
[II] OC[C@H]1O[C@@H](O[C@H]2[C@@H](O)[C@@H](CO)O[C@@H](O[C@H]3C(O)O[C@H](CO)[C@@H](O)[C@@H]3O)[C@@H]2O)[C@H](O)[C@@H](O)[C@H]1O (stereo partly drawn) [Cpd. ID 30, D-Gal-(β1-3)-D-Gal-(β1-2)-D-Glu]
// returns I or II , whichever has the lower Peak areas Respond using the label that marks the chosen record.
II

====

Test system: microbiota present in the faecal samples
measurementNotes: Faecal fermentation, distribution of oligosaccharides (HPAEC-PAD peak areas)
experimentalParameters: Comp. Ex. 1 sample, 6 h, Donor A
From the text: HPAEC-PAD (high performance anion exchange chromatography) equipped with a PA-1 column was used for separation of mono- and oligosaccharides of the different samples. […] The samples as used for GPC were 100-fold diluted with DMSO before injection. The distribution of oligosaccharides in the mixtures was also monitored over this time period using the method described above in relation to Table 2.
reportedEndpoint: Peak areas

>>> reportedresult("OC[C@H]1O[C@@H](OC[C@H]2OC(O)[C@H](O)[C@@H](O)[C@@H]2O)[C@H](O)[C@@H](O)[C@H]1O (stereo partly drawn)")
0.0
>>> reportedresult("OC[C@H]1O[C@@H](O[C@H]2[C@@H](O)[C@@H](CO)O[C@@H](O[C@H]3[C@H](O)[C@@H](CO)OC(O)[C@@H]3O)[C@@H]2O)[C@H](O)[C@@H](O)[C@H]1O (stereo partly drawn)")
0.1
>>> reportedresult("OC[C@H]1O[C@@H](O[C@H]2[C@@H](O)[C@@H](CO)O[C@@H](O[C@H]3[C@@H](O)[C@@H](CO)O[C@@H](O[C@H]4[C@H](O)[C@@H](O)C(O)O[C@@H]4CO)[C@@H]3O)[C@@H]2O)[C@H](O)[C@@H](O)[C@H]1O (stereo partly drawn)")
0.0
>>> reportedresult("OC[C@H]1O[C@@H](O[C@H]2[C@H](O)[C@@H](O)C(O)O[C@@H]2CO)[C@H](O)[C@@H](O)[C@H]1O (stereo partly drawn)")
0.7
>>> reportedresult("O=C[C@H](O)[C@@H](O)[C@H](O)[C@H](O)CO")
2.9

[1] OC[C@H]1O[C@@H](O[C@H]2[C@@H](O)[C@@H](CO)O[C@@H](O[C@H]3C(O)O[C@H](CO)[C@@H](O)[C@@H]3O)[C@@H]2O)[C@H](O)[C@@H](O)[C@H]1O (stereo partly drawn)
[2] OC[C@H]1O[C@@H](O[C@H]2[C@@H](O)[C@@H](CO)O[C@@H](O[C@H]3[C@H](O)[C@@H](O)C(O)O[C@@H]3CO)[C@@H]2O)[C@H](O)[C@@H](O)[C@H]1O (stereo partly drawn)
I'd appreciate it if you could identify which of 1 and 2 has the greater Peak areas. Respond using the label that marks the chosen record.
2

====

System: microbiota present in the faecal samples
measurementNotes: Faecal fermentation, distribution of oligosaccharides (HPAEC-PAD peak areas)
experimentalParameters: Example 2 sample, 48 h, Donor A
reportedEndpoint: Peak areas

>>> reportedresult("OC[C@H]1O[C@@H](O[C@H]2[C@@H](O)[C@@H](CO)O[C@@H](O[C@H]3[C@@H](O)[C@@H](CO)O[C@@H](O[C@H]4[C@H](O)[C@@H](O)C(O)O[C@@H]4CO)[C@@H]3O)[C@@H]2O)[C@H](O)[C@@H](O)[C@H]1O (stereo partly drawn)")
0.0
>>> reportedresult("OC[C@H]1O[C@@H](O[C@H]2[C@@H](O)[C@@H](CO)O[C@@H](O[C@H]3[C@H](O)[C@@H](CO)OC(O)[C@@H]3O)[C@@H]2O)[C@H](O)[C@@H](O)[C@H]1O (stereo partly drawn)")
0.1
>>> reportedresult("OC[C@H]1O[C@@H](O[C@H]2[C@@H](O)[C@@H](CO)O[C@@H](O[C@H]3[C@H](O)[C@@H](O)C(O)O[C@@H]3CO)[C@@H]2O)[C@H](O)[C@@H](O)[C@H]1O (stereo partly drawn)")
0.3
>>> reportedresult("OC[C@H]1O[C@@H](O[C@H]2[C@@H](O)[C@@H](CO)O[C@@H](O[C@H]3C(O)O[C@H](CO)[C@@H](O)[C@@H]3O)[C@@H]2O)[C@H](O)[C@@H](O)[C@H]1O (stereo partly drawn)")
0.1
>>> reportedresult("OC[C@H]1O[C@@H](OC[C@H]2OC(O)[C@H](O)[C@@H](O)[C@@H]2O)[C@H](O)[C@@H](O)[C@H]1O (stereo partly drawn)")
0.0

[A] OC[C@H]1O[C@@H](O[C@@H]2[C@H](O)[C@@H](O)[C@H](O[C@H]3[C@H](O)[C@@H](O)C(O)O[C@@H]3CO)O[C@@H]2CO)[C@H](O)[C@@H](O)[C@H]1O (stereo partly drawn)
[B] O=C[C@H](O)[C@@H](O)[C@H](O)[C@H](O)CO
// returns A or B , whichever has the lower Peak areas Respond using the label that marks the chosen record.
B
